This collection of values is drawn from PubChem BioAssay (NCI).

System: SK-MEL-5 melanoma
PROCEDURE TEXT: NCI-60 one-dose screen, 48 h (100 = growth as untreated, 0 = no growth, -100 = all killed)
DETAILS: 10 µM
This is part of a sample that, as a whole, favours compounds with a hit. Of some 83,000 tested, about 20% had one in any assay.
growth vs 60%: less than gives criterion met; not less than gives criterion not met.

>>> assigned_category("COc1ccc2nc3ccccc3c(NCCNCC(C)O)c2c1 (stereo not drawn)")
"criterion met"
>>> assigned_category("COc1cc2c(cc1OCCCCCCN1CCN(CC(=O)Nc3ccc(Cl)cc3C(=O)c3ccccc3Cl)CC1)N=CC1CCCN1C2=O (stereo not drawn)")
"criterion met"
>>> assigned_category("COc1ccc(/C=C2/CN(C(=O)c3ccccc3F)C/C(=C\\c3ccc(OC)cc3)C2=O)cc1")
"criterion met"
>>> assigned_category("COc1cc(-c2cc(/C=C/C(=O)c3ccc(F)c(F)c3)[nH]n2)cc(OC)c1OC")
"criterion not met"
>>> assigned_category("CCCCCCCCCCCC[n+]1ccc(C(N)=O)cc1")
"criterion met"
>>> assigned_category("N#CCCN1C/C(=C/c2ccc(Br)cc2)C(=O)/C(=C/c2ccc(Br)cc2)C1")
"criterion met"
>>> assigned_category("O=C1/C(=C\\c2cn(C(=O)c3ccc(Cl)cc3)c3ccccc23)c2ccccc2N1C(=O)c1ccc(Cl)cc1")
"criterion not met"

====

Test system: HT29 colon
PROCEDURE TEXT: NCI-60 one-dose screen, 48 h
DETAILS: 10 µM
The panel holds about 83,000 compounds, 20% with a hit somewhere; the sample as a whole holds those more often. The source made the active and inactive calls. Rule for the calls: active = growth percent below 10; inactive = the rest.
Outcomes: active, inactive

>>> assigned_category("CC(=O)c1nc2ccccc2n1CCNC(N)=O")
"inactive"
>>> assigned_category("Cc1[nH]nc2c1C(c1cnn(C)c1)C(C#N)=C(N)O2 (centres undefined)")
"inactive"
>>> assigned_category("COc1ccc(-c2cc(-c3ccc(N(C)C)cc3)c(C#N)c(N3CCCC3)n2)cc1")
"inactive"
>>> assigned_category("COc1ccc(-c2cc(/C=C/C(=O)c3cc(OC)c(OC)c(OC)c3)[nH]n2)cc1OC")
"active"
>>> assigned_category("CN(C)C=Nc1cc(Cl)ccc1Cl")
"inactive"
>>> assigned_category("N#Cc1cccc(OCc2nc(N)nc(N)c2-c2ccc(Cl)c(Cl)c2)c1")
"active"
>>> assigned_category("O=c1[nH]c2ccc(Cl)cc2c2ccccc12")
"inactive"
>>> assigned_category("Cc1ccc2oc3nc(C)c(C(=O)NCc4ccccc4)cc3c(=O)c2c1")
"inactive"
>>> assigned_category("CC(=O)/C(=C/c1ccccc1)C(=O)CC(C)C")
"inactive"

====

Tested on: HCT-116 colon
PROCEDURE TEXT: NCI-60 one-dose screen, 48 h
DETAILS: 10 µM
About 83,000 compounds went through this panel and 20% of them were active in at least one assay; those are over-represented in the sample as a whole. Active and inactive are the calls of the source. Rule for the calls: active = growth percent below 10; inactive = the rest.
Outcomes: active, inactive

>>> assigned_category("COc1cc(Cl)cc(-c2nn(-c3cccc(NC(=O)Nc4cc(C(F)(F)F)cc(C(F)(F)F)c4)c3)cc2-c2ccncc2)c1")
"active"
>>> assigned_category("CCOC1(OCC)OC(c2ccccc2)=C(C#N)C(/C=C\\c2ccccc2)C1(OCC)OCC (stereo not drawn)")
"inactive"
>>> assigned_category("CCCCCCCCCCCCCCCC(=O)OC1[C@@H](OC(=O)CCCCCCCCCCCCCCC)[C@@H](C(=O)N[C@@H](CCCCN)C(=O)OC)O[C@H]1n1cnc2c(=O)[nH]c(NC(=O)C(C)C)nc21 (stereo partly drawn)")
"inactive"
>>> assigned_category("CCCCCCCCN(CCCCCCCC)CCCCCCCCCN1CCCc2cc(OC)ccc21")
"inactive"
>>> assigned_category("COc1cc(-c2nc(-c3nnc(-c4ccccc4Cl)o3)c3ccccn23)cc(OC)c1OC")
"inactive"
>>> assigned_category("Cn1c([N+](=O)[O-])cnc1/C=C1\\Oc2ccc(Cl)cc2C1=O")
"active"
>>> assigned_category("CCN(CC)CCNc1ccc(CO)c2oc3cc(Cl)ccc3c(=O)c12")
"inactive"
>>> assigned_category("S=C1SCC(c2ccccc2)S1 (stereo not drawn)")
"inactive"
>>> assigned_category("CSCCCNC(=O)c1ccc2c(c1)/C(=C/c1[nH]c(C)cc1C)C(=O)N2")
"active"
>>> assigned_category("O=C1/C(=C\\c2ccc(F)cc2)CN(C(=O)c2ccccc2F)C/C1=C\\c1ccc(F)cc1")
"active"
>>> assigned_category("Clc1nc(Cl)c2c(ncn2C/C=C\\Cn2cnc3c(Cl)nc(Cl)nc32)n1")
"active"
>>> assigned_category("CCOC(=O)N1C=CC2C=CC1C1C=CC=CC2N1C(=O)OCC (stereo not drawn)")
"inactive"
>>> assigned_category("Cc1cc(=O)n2nnc3c4ccccc4ccc3n12")
"active"
